For each entry below, report its IC50 value.
# Tested on: SW-480 (human colon cancer cells)
# assayProtocol: MTT inhibition of tumor cell growth, SW-480
# Type: cell-based
# protocolConditions: Homo sapiens, SW480, Table 7 (first), alkaloid derivatives, 48 h, read-out: IC50 SW-480
The reply should be a number in µM, with the unit left off.

[Q] # input compound: C=C1C(=O)[C@]23CC[C@H]1CC2[C@@]12CCC[C@@]4(C)C5OCCN5C1O[C@@H]3CC42 (some centres unmarked) ; wanted: its IC50
[A] 1.97

[Q] Record request: IC50 value, item C=C1C(=O)[C@@]23CC[C@@H](CC2[C@@]24CCC[C@@](C)(CN(CCO)C2)C14)C(=C)C3=O (some centres unmarked)
[A] 2.81

[Q] Return reported IC50; argument: C=C1C(=O)[C@@]23CC[C@@H](CC2[C@@]24CCC[C@@](C)(CN(CCO)C2)C14)C(=C)[C@@H]3O (some centres unmarked)
[A] 9.84

[Q] # query: IC50 of entry C=C1C(=O)[C@]23CC[C@H]1CC2[C@@]12CCC[C@@](C)(CN(CCO)C1)C2CC3=O (some centres unmarked)
[A] 11.8

[Q] Sample C=C1C(=O)[C@]23CC[C@H]1CC2[C@@]12CCC[C@@]4(C)CN(CCO)[C@@H]1O[C@@H]3CC42 (some centres unmarked) — what was its IC50?
[A] 14

[Q] Tell me the measured IC50 of C=C1C(=O)[C@]23CC[C@H]1CC2[C@@]12CCC[C@@](C)(CN(CCO)C1)C2C[C@H]3O (some centres unmarked) , please.
[A] 14.4

[Q] Return reported IC50; argument: C=C1C(=O)[C@]23CC[C@H]1CC2[C@@]12CCC[C@@]4(C)C(=O)N[C@@H]1O[C@@H]3CC24 (some centres unmarked)
[A] 14.2

[Q] Can you look up the measured IC50 of C=C1C(=O)[C@]23CC[C@H]1CC2[C@@]12CCC[C@@]4(C)C(=O)N(CCO)[C@@H]1O[C@@H]3CC24 (some centres unmarked) for me?
[A] 12.4

====

I'd be grateful if you could share measured pIC50 for these entries.
# Test system: MCF-7 (human breast cancer cells)
# assayProtocol: MTT inhibition of tumor cell growth, MCF-7
# Format: cell-based
# protocolConditions: Homo sapiens, MCF7, 48 h, Table 2, derivatives having potential Michael reaction acceptor
pIC50 field: float, defined as -log10 of concentration (mol/L).

[Q] Looking for the measured pIC50 of C=C1C(=O)[C@]23CC[C@H]1CC2[C@@]12CCC[C@@](C)(COC1)C2[C@H](CO)C3=O (stereo partly drawn) [Compound 30] , can you help?
[A] 5.84

[Q] Requested read-out: pIC50. Entry: C=C1C(=O)[C@]23CC[C@H]1CC2[C@@]12CCC[C@@](C)(COC1=O)C2[C@H](CN1CCOCC1)C3=O (stereo partly drawn) [Compound 9]
[A] 5.45

[Q] Suppose we examine the compound C=C1C(=O)[C@@]23CC[C@@H](CC2[C@@]24CCC[C@@](C)(COC2)C14)C(=C)C3=O (stereo partly drawn) [Compound 31] ; what pIC50 value has been reported?
[A] 5.05

[Q] // returns reported pIC50 for input C=C1C(=O)[C@]23CC[C@H]1CC2[C@@]12CCC[C@@](C)(COC1=O)C2CC3=O (stereo partly drawn) [Compound 7]
[A] 5.34

[Q] What value of measured pIC50 is listed for C=C1C(=O)C23CC[C@H]1CC2[C@]1(COC(C)=O)CCC[C@@](C)(COC(C)=O)C1CC3=O (stereo partly drawn) [Compound 47] ?
[A] 5.47
